Source listed as ChEMBL document CHEMBL4513216.

- PROCEDURE_DETAILS: Toxicity liver stage against HepG2, at 10uM
- Format: cell-based
- Parameters: test concentration 10 uM, cell line HepG2-A16-CD81EGFP
- REPORTED_CONDITIONS: human, HepG2-A16-CD81EGFP cells; read-out: INHIBITION
QUANTITY: cytotoxicity at 10 µM (%)
Numeric only. Scale: %

Here are 2 compounds together with their reported answers.
Cc1nc(NCc2nonc2C)cc(C(C)Cn2nc(C)c(C)c2C)n1 (stereo not given)    7.03
c1cc(CN2CCO[C@H]3[C@H](OCC4CCCC4)CC[C@@H]32)ccn1    13.9

Q) # input compound: CCC(C(=O)N(C)C)n1ccc2ncccc2c1=O (stereo not given) ; wanted: its cytotoxicity at 10 µM
A) 3.63

Q) And the next one, O=C(Cn1nc(-c2ccc(F)cc2)oc1=O)NCc1ccccc1F ?
A) -9.04

Q) // same read-out, input: Cc1ccc(N2CCC3(CCN(C(=O)c4ccsc4)C3)CC2)nn1
A) -0.0395

Q) Also need COCCNC(=O)[C@H]1C[C@@H]2CCN(c3nncs3)C[C@H]2O1 , thanks.
A) -2.12

Q) Next record, please: c1coc(CN2C[C@@H]3CN(Cc4ccoc4)CCO[C@@H]3C2)c1
A) -3.87

Q) Same for Cc1cccc(CN2CC[C@@H]3O[C@@H](C(=O)N4CCN(C)CC4)C[C@@H]32)n1
A) 1.04

Q) Another: Cc1ccoc1C(=O)N1C[C@H](OCc2cccnc2)[C@H]2OCCC[C@H]21
A) -5.28

Q) Continue with Cc1cc(C(F)(F)F)nc(CCNc2nc(C)nc3c2cnn3C)n1
A) 4.79
